Source: patent US20230096766A1

PROTOCOL_TEXT: in vitro
CONDITIONS_USED: human, Caco-2, Caco-2 (cm/sec)
*1 amine or outer side, *2 acyl side, *3 side chain or, on linkers, in order; H or OH if unused. Where a SMILES comes first, the peptide text is derived from it. Bridges are numbered along the chain shown (N, C = ends). [ ]: non-standard residue; d: D form. The star is where a group is joined. ξ: configuration not given here. NMeHph(3-OMe-4-CONHMe) = CNC(=O)c1ccc(CC[C@H](NC)C(=O)O)cc1OC; NMePhe(3-Cl) = CN[C@@H](Cc1cccc(Cl)c1)C(=O)O; NMeW = CN[C@@H](Cc1c[nH]c2ccccc12)C(=O)O; Propyl(2,2-Me2,3-OH) = CC(C)(CO)C*; NMeF = CN[C@@H](Cc1ccccc1)C(=O)O; NMeGABA = CN(CCCC(=O)[*:2])[*:1]; NMeI = CC[C@H](C)[C@H](NC)C(=O)O; NMeL = CN[C@@H](CC(C)C)C(=O)O; Butyl(3R-OH) = C[C@@H](O)CC*; NMeV = CN[C@H](C(=O)O)C(C)C; NMeAbu = CC[C@H](NC)C(=O)O; NMeA = CN[C@@H](C)C(=O)O; Piperidide = C1CCN(*)CC1; CH2CMe2OH = CC(C)(O)C*; NBuGly = CCCCNCC(=O)O; NPrGly = CCCNCC(=O)O; ξS = NC(CO)C(=O)O; Sar = CNCC(=O)O; tBu = CC(C)(C)*
EXPERIMENTAL_ENDPOINT: Papp
Could you kindly put the unit after your number?

Inquiry: Report Papp for CC(C)C[C@H]1C(=O)N[C@@H]([C@@H](C)O)C(=O)N(C)[C@@H](CC(C)C)C(=O)N(C)[C@@H](CC(C)C)C(=O)N[C@H](C(=O)N2CCCCC2)CC(=O)N(C)CCCC(=O)N(C)[C@@H](C(C)C)C(=O)N[C@@H](COCC[C@@H](C)O)C(=O)N(C)[C@@H](Cc2ccccc2)C(=O)N(C)[C@@H](Cc2cccc(Cl)c2)C(=O)N[C@@H](COC(C)(C)C)C(=O)N1C [AP110] ([NMeGABA][NMeV]S(Butyl(3R-OH))[NMeF][NMePhe(3-Cl)]S(tBu)[NMeL]T[NMeL][NMeL]D-Piperidide; lactam N-11) please.
Reply text: 0.23 ×10⁻⁶ cm/s

Inquiry: Endpoint output: Papp of CC[C@H](C)[C@H]1C(=O)N[C@@H]([C@@H](C)O)C(=O)N(C)CC(=O)N(C)[C@@H](CC(C)C)C(=O)N[C@H](C(=O)N2CCCCC2)CC(=O)N(C)[C@@H](CC(C)C)C(=O)N[C@@H](CC(C)C)C(=O)N(C)[C@@H](CC(C)C)C(=O)N(C)[C@@H](Cc2c[nH]c3ccccc23)C(=O)N[C@@H](CC(C)C)C(=O)N(C)[C@@H](Cc2ccccc2)C(=O)N1C [pd111] ([NMeL]L[NMeL][NMeW]L[NMeF][NMeI]T[Sar][NMeL]D-Piperidide; lactam N-11) . Value?
Reply text: 0.16 ×10⁻⁶ cm/s

Inquiry: Quick one: Papp of CC[C@H](C)[C@@H]1NC(=O)[C@H](CC(C)C)N(C)C(=O)CN(C)C(=O)C[C@@H](C(=O)N2CCCCC2)NC(=O)[C@H](C)N(C)C(=O)[C@H](COC(C)(C)C)NC(=O)[C@H](CC(C)C)N(C)C(=O)[C@H](CC(C)C)N(C)C(=O)CN(C)C(=O)[C@H](Cc2c[nH]c3ccccc23)NC(=O)[C@H](CC(C)C)N(C)C1=O [pd103] ([Sar][NMeL]I[NMeL]W[Sar][NMeL][NMeL]S(tBu)[NMeA]D-Piperidide; lactam N-11) ?
Reply text: 0.093 ×10⁻⁶ cm/s

Inquiry: Request the reported Papp associated with CCCCN1CC(=O)N(C)[C@@H](Cc2ccccc2)C(=O)N(C)[C@@H](CC(C)C)C(=O)N[C@@H](COCC(C)(C)CO)C(=O)N(C)[C@@H](CC(C)C)C(=O)N[C@H](C(=O)N2CCCCC2)CC(=O)N(C)CC(=O)N(C)[C@@H](Cc2ccccc2)C(=O)N[C@@H](C(C)C)C(=O)N(C)[C@@H](CC(C)C)C(=O)N[C@@H]([C@@H](C)O)C1=O [AP124] ([Sar][NMeF]V[NMeL]T[NBuGly][NMeF][NMeL]S(Propyl(2,2-Me2,3-OH))[NMeL]D-Piperidide; lactam N-11)
Reply text: 1.6 ×10⁻⁶ cm/s

Inquiry: Find the recorded Papp belonging to CCCN1CC(=O)N(C)[C@@H](Cc2ccccc2)C(=O)N[C@@H]([C@@H](C)CC)C(=O)N(C)[C@@H](CC(C)C)C(=O)N[C@@H]([C@@H](C)O)C(=O)N(CCC)CC(=O)N(C)[C@@H](Cc2ccccc2)C(=O)N(C)[C@@H](CC(C)C)C(=O)N[C@@H](COCC(C)(C)O)C(=O)N(C)[C@@H](C(C)C)C(=O)N[C@H](C(=O)N2CCCCC2)CC1=O [AP09] ([NPrGly][NMeF]I[NMeL]T[NPrGly][NMeF][NMeL]S(CH2CMe2OH)[NMeV]D-Piperidide; lactam N-11) and report it.
Reply text: 1.1 ×10⁻⁶ cm/s

Inquiry: Using the record for CC[C@H]1C(=O)N[C@@H](CC(C)C)C(=O)N(C)[C@@H](CC(C)C)C(=O)N(C)[C@@H](Cc2ccccc2)C(=O)N[C@@H](Cc2ccc(O)cc2)C(=O)N(C)[C@@H](CC(C)C)C(=O)N(C)[C@@H](CC(C)C)C(=O)N[C@@H]([C@@H](C)O)C(=O)N(C)CC(=O)N(C)[C@@H](CC(C)C)C(=O)N[C@H](C(=O)N2CCCCC2)CC(=O)N1C [Compound F05] ([NMeAbu]L[NMeL][NMeF]Y[NMeL][NMeL]T[Sar][NMeL]D-Piperidide; lactam N-11) , report its Papp.
Reply text: 0.38 ×10⁻⁶ cm/s

Inquiry: Given CC[C@H]1C(=O)N[C@@H](CC(C)C)C(=O)N(C)[C@@H](CC(C)C)C(=O)N(C)[C@@H](Cc2ccccc2)C(=O)NC(COCC(C)(C)CO)C(=O)N(C)[C@@H](Cc2ccccc2)C(=O)N(C)[C@@H](CC(C)C)C(=O)N[C@@H]([C@@H](C)O)C(=O)N(C)CC(=O)N(C)[C@@H](CC(C)C)C(=O)N[C@H](C(=O)N2CCCCC2)CC(=O)N1C (stereo partly drawn) [AP122] ([NMeAbu]L[NMeL][NMeF][ξS](Propyl(2,2-Me2,3-OH))[NMeF][NMeL]T[Sar][NMeL]D-Piperidide; lactam N-11) , state its recorded Papp.
Reply text: 2.9 ×10⁻⁶ cm/s

Inquiry: // Papp lookup, key: CCCN1CC(=O)N(C)[C@@H](Cc2cccc(Cl)c2)C(=O)N(C)[C@@H](CC(C)C)C(=O)N[C@@H](COC(C)(C)C)C(=O)N(C)[C@@H](CC(C)C)C(=O)N[C@H](C(=O)N2CCCCC2)CC(=O)N(C)CC(=O)N(C)[C@@H](Cc2ccccc2)C(=O)N[C@@H](COCC(C)(C)O)C(=O)N(C)[C@@H](CC(C)C)C(=O)N[C@@H]([C@@H](C)O)C1=O [AP07] ([Sar][NMeF]S(CH2CMe2OH)[NMeL]T[NPrGly][NMePhe(3-Cl)][NMeL]S(tBu)[NMeL]D-Piperidide; lactam N-11)
Reply text: 1.3 ×10⁻⁶ cm/s

Inquiry: Record request: Papp value, item CNC(=O)c1ccc(CC[C@H]2C(=O)N(C)[C@@H](CC(C)C)C(=O)N[C@@H]([C@@H](C)O)C(=O)N(C)CC(=O)N(C)[C@@H](CC(C)C)C(=O)N[C@H](C(=O)N3CCCCC3)CC(=O)N(C)[C@@H](C)C(=O)N[C@@H](CC(C)C)C(=O)N(C)[C@@H](CC(C)C)C(=O)N(C)[C@@H](Cc3ccccc3)C(=O)N[C@@H](CC(C)C)C(=O)N2C)cc1OC [AP230] ([NMeA]L[NMeL][NMeF]L[NMeHph(3-OMe-4-CONHMe)][NMeL]T[Sar][NMeL]D-Piperidide; lactam N-11)
Reply text: 0.96 ×10⁻⁶ cm/s
